B1: Homeobox protein cut-like 1, residues 548 to 629; numbered along this chain, P39880 (parent)
chain: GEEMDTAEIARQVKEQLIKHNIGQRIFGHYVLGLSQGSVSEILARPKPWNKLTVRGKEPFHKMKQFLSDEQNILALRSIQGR

- Variants of: B1
- procedureSummary: abundance fitness (aPCA) (normalised: wild type 0, dead -1); higher = more abundant; growth selection in yeast, the domain comes from the species named
- protocolConditions: Homo sapiens

# changes, abundance fitness
rows = [
    ("V13A", -0.415),
    ("A44S", 0.034),
    ("T6R", -0.896),
    ("S38D", 0.125),
    ("I22S", -0.801),
    ("I42N", -0.633),
    ("F60M", -0.536),
    ("G81E", 0.105),
    ("L43D", -0.68),
    ("E41D", -0.061),
    ("S40Y", -0.102),
    ("G1E", -0.036),
    ("E3H", -0.027),
    ("A10R", -0.792),
    ("Q65F", -0.446),
    ("S68V", -0.304),
    ("G23K", 0.012),
    ("L76D", -0.716),
    ("V54D", 0.052),
    ("K57L", -0.288),
    ("G81H", 0.04),
    ("V39W", -0.33),
]
